Below, each of the proteins is paired with its reported Enzyme Activity Endpoint Assay: Fc value.
biological target: pooled human IgG (human IgG1, 2, 3 and 4)
Give the value in ng/µL but do not write ng/µL after it.

PRT-423 (protein) MTITSVWTKGVTPPTPEDFRYNNEDVLHAPYVANQGWYDITKTFDGKDNLLCGAATAGNMLHWWFDQNKEEIERYLKKHPEKQKIIFNNQELFDVKAAIDTKDSQTNSKLFNYFRDKAFPNLSARQLGVMPDLVLDMFINGYYLNLGKTQSTDVNRPYQDKDKRGGIFDAVFTRGDQTTLLTARHDLKNKGLNEISDLIKQELTEGKALALSHTYANVRINHVINLWGADFDAEGNLIAIYVTDSDANASIGMKKYFVGRNANGKVAISAKKIEGDNIGAQVLGLFTLSTGQDIWQKLS :: 0

# ---- query protein ----
Which Enzyme Activity Endpoint Assay: Fc reading was recorded for the protein PRT-264 (protein) MVTSVWTKGVTPPTNFTYGEDVLHAPYVANQGWYDITKLFNGKDNLLCGAATAGNMLHWWFDQNKEQIENYLKKHPEKQKINFNGEQLFDVKEAIDTKDSQLDSKLFDYFKEKAFPYLSTKHLGVFPDHVIDMFINGYRLSLTNHGPTPVKRGSKDKRGGIFDAVFTRGVQSKLLTNRHDFKEKTLKEISDLIKQELTEGKALGISHTYANVRINHVINLWGADFDAEGNLEAIYVTDSDTNPSIGMKKYFVGVNSSGKVAISAKEIEEDNIGAQVLGLFTLSTGQDIWNQTN ?
353

The reported measurements were obtained from patent US20250027068.
